System: HCC-2998 colon
Assay: NCI tumour cell line growth inhibition, 48 h
MEASURE: TGI

Which TGI is listed for O=C(O)C1CCCCC1c1c2ccc(=O)cc-2oc2cc(O)ccc12 (stereo not given) ?
> 100 µM

Try this compound too: `COc1cc2c(c(OC)c1OC)-c1ccc(OC)c(=O)cc1[C@@H](N(C)C=O)CC2`
> 100 µM

Try this compound too: O=C(CC1C=CCS1(=O)=O)NCc1ccccc1 (stereo not given)
> 100 µM

Try this compound too: C#CC(O)/C=C/C(O)CCCC(O)CC#CC(O)C#CC(O)CCCC(O)/C=C/CCCC(=O)CCCCCCCCCCCCCCCC(O)C(O)C#CC(=O)O (stereo not given)
> 50 µM

Try this compound too: `Cn1cnc([N+](=O)[O-])c1Sc1nnnn1-c1ccccc1`
32.5 µM

Try this compound too: `COc1cc2c(cc1OCCCCOc1ccc(-c3nc4ccccc4s3)cc1)N=C[C@@H]1CCCN1C2=O`
2.28 µM

Try this compound too: `CC(=O)O[C@H]1C[C@H]2C(=S)Nc3ccccc3C(=S)N2C1`
> 100 µM

Try this compound too: `N#Cc1ccc(Oc2nc3ccc(C(F)(F)F)cc3nc2-c2ccccc2)cc1`
32.3 µM

Try this compound too: CCN(CC)CCCC(C)NC(=O)c1ccc2c(c1)C(=O)c1ccccc1C2=O (stereo not given)
33.5 µM

Try this compound too: `Oc1ccc(O)c(CNc2ccccc2)c1`
67.7 µM

---

For each entry below, report its TGI value.
Test system: RPMI-8226 leukemia
Test: NCI tumour cell line growth inhibition, 48 h
Give the value, in units of µM, as a plain number.

Which TGI is listed for `CCN(CC)CCCOc1cc2c(cc1OC)C(=O)N1CCC[C@H]1C=N2` ?
53.8

Try this molecule too: `COc1ccc2c(c1)/C(=N/OC(C)=O)c1c-2c(=O)[nH]c2ccccc12`
21.8

Try this molecule too: `OCc1ccc(N(CCN2CCCC2)Cc2ccc(F)cc2)cc1Cl`
47.4

Try this molecule too: CC(=O)N1c2ccccc2C(C)C1c1[nH]c2ccccc2c1C (stereo unspecified)
73

Try this molecule too: `Nc1ccc(Oc2ccc(C34CC5CC6C3CC3CC4C(C5)C6(c4ccc(Oc5ccc(N)c(O)c5)cc4)C3)cc2)cc1O`
7.94

Try this molecule too: `C[C@]1(O)O[C@@H]2OCC[C@@H]2C2=C1C(=O)c1ccccc1C2=O`
20.9

Try this molecule too: `O=C(/C=C/c1ccccc1Cl)c1ccc(Cl)cc1Cl`
37.5

---

Test system: SF-539 CNS
Assay: NCI tumour cell line growth inhibition, 48 h
For each entry below, report its log10 of TGI value.
Please keep in mind that the values are log10 of TGI expressed in µM.

Which log10 of TGI is listed for `COc1ccc2c(c1)/C(=N/OC(C)=O)c1c-2c(=O)[nH]c2ccccc12` ?
1.67

Try this compound too: C=C1C[C@@]2(C)C(CC[C@]3(C)C2CC=C2C4CC(C)(C)C[C@@H](OC(=O)/C(C)=C\C)[C@]4(C(=O)O)CC[C@]23C)C(C)(C)C1=O (stereo not given in full)
0.93

Try this compound too: `C=C1C(=O)O[C@@H]2[C@H](O)[C@@H](C)[C@@H]3C=CC(=O)[C@@]3(C)[C@H](OC(=O)C=C(C)C)[C@H]12`
-0.22

Try this compound too: O=C(O)C1CCCCC1c1c2ccc(=O)cc-2oc2cc(O)ccc12 (stereo not given)
1.69

Try this compound too: COc1ccc2c(c1)C1(C(=O)N2)C(C#N)=C(c2ccccc2)Nc2c1c(-c1ccccc1)nn2-c1ccccc1 (stereo not given)
0.56

Try this compound too: `COc1ccc(-c2cc(-c3cc(F)c(Cl)cc3Cl)on2)cc1OC`
1.43

Try this compound too: `O=C1NN(c2ccccc2)C(=O)/C1=C/c1ccc(Br)o1`
1.62

Try this compound too: `O=[N+]([O-])c1ccc2nc3ccccc3cc2c1`
0.83

Try this compound too: `COc1cc(/C=C(\OC(C)=O)c2ccc3c(c2)OCO3)cc(OC)c1OC`
1.59

Try this compound too: `COc1ccc(Oc2nc(C#CC(C)(C)O)nc(Oc3ccc(OC)cc3)n2)cc1`
1.35

---

For each entry below, report its TGI value.
System: NCI-H460 lung
Assay: NCI tumour cell line growth inhibition, 48 h

Provide value of TGI for this record tested with NCI-H460 lung: `Cn1cnc([N+](=O)[O-])c1Sc1nnnn1-c1ccccc1`
33.5 µM

Try this compound too: `CC(=O)O[C@H]1C[C@H]2C(=S)Nc3ccccc3C(=S)N2C1`
> 100 µM

Try this compound too: `Clc1nc(Cl)c(CBr)c(Cl)n1`
18.5 µM

Try this compound too: Cc1ccc(C(=O)Nc2ccc(S(=O)(=O)O)c3cc(S(=O)(=O)O)cc(S(=O)(=O)O)c23)cc1NC(=O)c1cccc(NC(=O)Nc2cccc(C(=O)Nc3cc(C(=O)Nc4ccc(S(=O)(=O)O)c5cc(S(=O)(=O)O)cc(S(=O)(=O)O)c45)ccc3C)c2)c1 (tested in a mixture with another compound)
> 50 µM

Try this compound too: O=C(O)C1CCCCC1c1c2ccc(=O)cc-2oc2cc(O)ccc12 (stereo unspecified)
> 100 µM

Try this compound too: CC/C=C/c1cc2cc[nH]c2c2c1C(C)C[C@@H]2C (stereo partly specified)
65.3 µM

Try this compound too: `c1ccc(C(CCN2CC3CCC(CC3)C2)c2ccccc2)cc1`
28.9 µM

Try this compound too: CC(Cc1ccccc1)NC1=NCCO1 (stereo unspecified)
36.6 µM

Try this compound too: `CC(C)C(=O)/C=C/c1ccc(Cl)c(Cl)c1`
48 µM

Try this compound too: `NC(=O)c1ccc2nc3c(n2c1)C(=O)C(=O)c1ccccc1-3`
3.34 µM

Try this compound too: `Cc1cc2nc(N3C(=O)/C(=C/c4ccc(Cl)cc4)N=C3c3ccccc3)sc2cc1C`
> 100 µM

Try this compound too: `O=c1c2cccnc2ncn1CCN1CCCC1`
> 100 µM

Try this compound too: N#Cc1nc(CCC(c2nc(C#N)c(N)o2)N2C(=O)c3ccccc3C2=O)oc1N (stereo unspecified)
> 100 µM

Try this compound too: `CC(=O)/C=C/c1ccc(C)cc1`
> 100 µM

Try this compound too: `COc1ccccc1NC(=O)O/N=C(/Cl)C(C)C`
37.5 µM

Try this compound too: `C#CCn1c(=O)c(Cl)cn(/C(=C/C(=O)OCC)C(=O)OCC)c1=O`
> 100 µM

Try this compound too: `N=c1c2c(=S)n(-c3ccccc3)c(=S)n(-c3ccccc3)c2nc(SCCN2CCOCC2)n1-c1ccccc1`
5.96 µM

Try this compound too: N#CC1C2CCC3(CC2CCN1C(=O)c1ccccc1)OCCO3 (stereo unspecified)
> 100 µM

Try this compound too: `Cc1cc(=O)oc2cc(OS(C)(=O)=O)ccc12`
> 100 µM

Try this compound too: NC(CC1=CCC=CC1)C(=O)O (stereo unspecified)
> 100 µM

Try this compound too: `O=C1ON=C2C3CC4CC12CC1(C3)C(=O)ON=C41`
> 100 µM

Try this compound too: `Cc1cc(N(CCCl)CCCl)ccc1/C=N/NC(=O)Cc1cc(=O)oc2cc(O)ccc12`
30.5 µM

Try this compound too: `CSc1nc2c(=O)n(-c3ccccc3)c(=S)n(-c3ccccc3)c2s1`
> 100 µM

Try this compound too: COc1cc2c(cc1OCCCC(=O)Nc1cc(C(=O)NCCCN(C)C)n(C)n1)N=CC1CCCN1C2=O (stereo unspecified)
> 100 µM

Try this compound too: `N#Cc1c(N)nc(N2CCOCC2)c(C#N)c1-c1ccccc1Cl`
> 100 µM

Try this compound too: O=C1CCS/C(=N\S(=O)(=O)c2ccc(N3N=C4c5ccccc5CC4C3c3cccs3)cc2)N1C(=O)c1ccccc1 (stereo unspecified)
> 100 µM

Try this compound too: `COc1ccc(Oc2nc(C#CC(C)(C)O)nc(Oc3ccc(OC)cc3)n2)cc1`
37.3 µM

Try this compound too: `O=C1CCCC2=C1CC1=C(CCCC1=O)N2c1ccccc1`
> 100 µM

Try this compound too: O=C(CC1C=CCS1(=O)=O)NCc1ccccc1 (stereo unspecified)
> 100 µM

Try this compound too: `Cc1nc2ccccc2n1Cc1nnc(N)o1`
> 100 µM

Try this compound too: CC(=O)/C=C(\O)c1[nH]c(C(=O)O)cc1C1CCN(Cc2ccccc2)C1=O (stereo unspecified)
32.3 µM

Try this compound too: `C=C1C(=O)O[C@H]2[C@H]1CC/C(Cn1cc(-c3cc(C)c(C)cc3C)nn1)=C\CC[C@@]1(C)O[C@@H]21`
10.8 µM

Try this compound too: `Nc1ccc(Oc2ccc(C34CC5CC6C3CC3CC4C(C5)C6(c4ccc(Oc5ccc(N)c(O)c5)cc4)C3)cc2)cc1O`
> 36.1 µM

Try this compound too: `CC(C)OC(=O)[C@@H](O)[C@H](CO)C1=CC([Si](C)(C)c2ccccc2)=CON1`
> 100 µM

Try this compound too: CCOP(=O)(OCC)C1=NC=CC=CC1n1c(-c2ccccc2)nn(CC)c1=O (stereo unspecified)
> 100 µM

Try this compound too: `O=[N+]([O-])c1c2nc3n(c2cc2c1nc1n2CCC1)CCC3`
> 100 µM

Try this compound too: CC1CCc2sc3[nH]c(=S)n(-c4ccccc4)c(=O)c3c2C1 (stereo unspecified)
> 100 µM

Try this compound too: `O=C(OCCC12CC3CC(CC(C3)C1)C2)c1ccc(NCc2cc(O)ccc2O)cc1`
> 100 µM

Try this compound too: `Oc1ccc(C#CCOc2ccccc2)cc1CNCCN(Cc1ccccn1)Cc1ccccn1`
2.38 µM

Try this compound too: `CC(C)(C)[C@H]1CCC2(OCCO2)[C@](O)(CCCO)C1`
> 100 µM

Try this compound too: `C=C(C)[C@@H]1CCC2=C[C@H](CC(C)=CC3=CC(C)=C(O3)[C@@H]1OC)OC2=O`
> 100 µM

Attribution: PubChem BioAssay (NCI)
